Test system: H4
experiment: Luminescence Cell-Based Dose Response HTS to Identify Activators of 5'UTR Stem-Loop Driven Prion Protein mRNA Translation in H4 Neuroglioblastoma Cells. [Related pubchem assays: 1829 (Project Summary), 1814 (Primary HTS)]
Format: functional
assay-context: Homo sapiens
The source made the active and inactive calls.
readout-type: EC50

Consider the worked cases shown below.
Oc1oc(-c2ccccc2Br)nc1/C=N/c1ccccn1 = > 120 µM (not active)
COc1cc(/C=C2\C=CC(=O)O2)cc(OC)c1 = > 120 µM (not active)
CC1=C/C(=N\NC(=S)NCCc2ccccc2)CC(C)(C)C1 = > 120 µM (not active)

Read the next record carefully.
Which EC50 is reported with H4 for this entry: C=CCS/C(N)=N\N=C\c1c(O)ccc2ccccc12 ?
< 0.1 µM (active)

====

The source made the active and inactive calls.
Reported IC50 values, Estrogen receptor beta (Homo sapiens, UniProt Q92731).

Consider the worked cases shown below.
Cc1nn2c(-c3cccc(NC(=O)CSc4nc5ccccc5o4)c3)nnc2c2ccccc12 = > 50 µM (not active)
Cc1ccc(/C=c2\sc3nc(-c4ccccc4Br)nn3c2=O)o1 = > 50 µM (not active)
O=C(Nc1ccc(Cc2ccncc2)cc1)C1CCC(N2C(=O)C3CC=CCC3C2=O)CC1 (stereo not drawn) = > 50 µM (not active)
Cc1ccc(Cc2cncc(O)c2)cc1S(=O)(=O)O = 13.5 µM (active)
O=C(Nc1ccc2c(c1)OCO2)c1cccc2c1C(=O)N(Cc1cccnc1)C2 = > 50 µM (not active)

Which IC50 is reported with Estrogen receptor beta (Homo sapiens, UniProt Q92731) for this entry: CCCCC(CC)C(=O)NCc1ccccc1OC (stereo not drawn) ?
> 50 µM (not active)

Which IC50 is reported with Estrogen receptor beta (Homo sapiens, UniProt Q92731) for this entry: COc1ccc(NC(=O)CN(c2ccccc2)S(=O)(=O)N(C)C)cc1OC ?
10.1 µM (active)

Which IC50 is reported with Estrogen receptor beta (Homo sapiens, UniProt Q92731) for this entry: Cc1ccc(S(=O)(=O)Cc2ccc(C(=O)N3CCc4ccccc4C3)o2)cc1 ?
4.88 µM (active)

====

Reported EC50 values for a set of molecules
target-or-test-system: Protein RecA (Mycobacterium tuberculosis)
experiment: Fluorescence Cell-Free Homogeneous Dose Retest to Identify Inhibitors of RecA-Intein Splicing Activity. [Related pubchem assays (depositor defined):AID2097, AID2223, AID489010, AID492950]
Assay type: functional
Activity calls are given as the source filed them.

Consider the worked cases shown below.
CCOC(=O)N1CCC(c2cc(=O)n(-c3ccccc3)[nH]2)CC1 = 2.51 µM (active)
CCc1ccc2c(c1)C(NC(C)=O)C(=O)N2CCN1CCOCC1 (centres undefined) = 16.8 µM (active)
CCOC(=O)/C(C#N)=C1/SC(C)C(=O)N1c1ccc(Br)cc1 (centres undefined) = 11.1 µM (active)

Read the next record carefully.
// query EC50 value for entry Cc1ccc(C(=O)C2C(c3ccc(-c4ccccc4[N+](=O)[O-])o3)NC(=O)NC2(O)C(F)(F)F)cc1 (centres undefined)
11.6 µM (active)

====

experiment: THP-1 cell cytotoxicity, dose response, cytotoxicity control for non-replicating M. tuberculosis project (AID 489025)
Assay type: functional
Activity calls are given as the source filed them.
readout-type: CC50

// query CC50 value for entry Cc1nn(-c2cccc(Cl)c2)c(O)c1/C=N/n1c(C)nc2ccccc2c1=O
28.7 µM (active)

// query CC50 value for entry CC[n+]1c(/C=C(\C)Nc2ccccc2)sc2ccccc21
30.1 µM (active)

// query CC50 value for entry CC(/C=C/c1ccccc1F)=N\NC(=O)c1ccccc1
> 40 µM (active)

// query CC50 value for entry CS(=O)(=O)c1sc(C#N)c2c1C(=O)CC(c1ccccc1)C2 (stereo not given)
4.22 µM (active)

// query CC50 value for entry Cc1ccccc1-n1ncc2c([N+](=O)[O-])cc([N+](=O)[O-])cc21
> 40 µM (active)

====

target-or-test-system: Protein skinhead-1 (Caenorhabditis elegans)
Sequence (P34707 whole entry): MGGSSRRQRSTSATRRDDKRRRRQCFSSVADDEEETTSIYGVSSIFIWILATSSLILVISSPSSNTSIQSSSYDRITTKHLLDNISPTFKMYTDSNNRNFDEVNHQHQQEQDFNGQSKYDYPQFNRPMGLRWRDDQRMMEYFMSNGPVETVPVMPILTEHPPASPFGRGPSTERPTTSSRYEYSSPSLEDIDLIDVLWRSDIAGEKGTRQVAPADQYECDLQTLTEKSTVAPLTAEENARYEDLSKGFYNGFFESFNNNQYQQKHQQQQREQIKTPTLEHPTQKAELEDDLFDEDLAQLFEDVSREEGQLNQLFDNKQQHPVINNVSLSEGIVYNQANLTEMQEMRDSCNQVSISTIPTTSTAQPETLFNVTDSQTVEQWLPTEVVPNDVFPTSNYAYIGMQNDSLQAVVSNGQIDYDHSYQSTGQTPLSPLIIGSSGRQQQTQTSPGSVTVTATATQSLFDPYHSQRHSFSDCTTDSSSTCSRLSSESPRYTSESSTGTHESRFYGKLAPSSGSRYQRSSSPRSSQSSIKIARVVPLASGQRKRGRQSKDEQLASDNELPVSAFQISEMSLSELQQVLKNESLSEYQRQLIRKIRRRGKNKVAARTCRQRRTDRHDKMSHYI
Type: functional
Calls of active or inactive are those of the source.
Parameter call: string, one of T = active, F = inactive

Clc1ccc(OCCCCSc2ncccn2)cc1 = T
C=CCNC(=O)c1cc2c(=O)n3ccccc3nc2s1 = F
CC(=O)Nc1cc(C(F)(F)F)ccc1OCC1CCCO1 (stereo not drawn) = F
c1ccc(-c2nc(CSc3nnc(-c4cccs4)o3)cs2)cc1 = F
O=C(/C=C/c1cccs1)c1ccc(Br)cc1 = F

Test call for this compound, please: Cc1c(Cl)cccc1Nc1c([N+](=O)[O-])nn(-c2ccccc2)[n+]1[O-]
F

Test call for this compound, please: C=CCN1C(=O)C(=O)N(Cc2nc3ccccc3s2)C1=O
F

Test call for this compound, please: O=c1cc(/C=C/c2ccccc2)oc2ccccc12
F

Test call for this compound, please: Cc1ccc(NC(=O)CNC(=O)c2cccs2)cc1S(=O)(=O)Nc1ccc(Cl)cc1
F

Test call for this compound, please: COc1ccc(C(=O)NN=C(NS(=O)(=O)c2ccc(C)cc2)c2ccccc2)cc1
F

Test call for this compound, please: O=C(Nc1ccc(Br)c(Cl)c1)c1ccco1
T

Test call for this compound, please: CCN1C(=O)/C(=C/N(C)c2ccccc2)OC1=S
F

Test call for this compound, please: Fc1ccccc1-c1nc(-c2ccc(Cl)cc2)no1
F

====

target-or-test-system: Corticotropin-releasing factor receptor 2/Corticotropin-releasing factor-binding protein (Homo sapiens, UniProt P24387+Q13324)
Sequence (Q13324 whole entry): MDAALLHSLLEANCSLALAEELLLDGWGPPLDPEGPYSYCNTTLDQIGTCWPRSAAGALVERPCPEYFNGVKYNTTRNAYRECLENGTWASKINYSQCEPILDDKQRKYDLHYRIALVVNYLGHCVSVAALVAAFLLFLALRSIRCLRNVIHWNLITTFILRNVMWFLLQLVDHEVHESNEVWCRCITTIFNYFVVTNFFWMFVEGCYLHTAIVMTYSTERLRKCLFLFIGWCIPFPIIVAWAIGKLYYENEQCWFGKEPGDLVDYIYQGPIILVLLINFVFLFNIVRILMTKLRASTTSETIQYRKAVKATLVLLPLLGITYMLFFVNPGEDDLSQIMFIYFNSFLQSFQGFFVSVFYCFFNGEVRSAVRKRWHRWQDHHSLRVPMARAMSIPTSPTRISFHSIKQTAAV
Sequence (P24387 whole entry): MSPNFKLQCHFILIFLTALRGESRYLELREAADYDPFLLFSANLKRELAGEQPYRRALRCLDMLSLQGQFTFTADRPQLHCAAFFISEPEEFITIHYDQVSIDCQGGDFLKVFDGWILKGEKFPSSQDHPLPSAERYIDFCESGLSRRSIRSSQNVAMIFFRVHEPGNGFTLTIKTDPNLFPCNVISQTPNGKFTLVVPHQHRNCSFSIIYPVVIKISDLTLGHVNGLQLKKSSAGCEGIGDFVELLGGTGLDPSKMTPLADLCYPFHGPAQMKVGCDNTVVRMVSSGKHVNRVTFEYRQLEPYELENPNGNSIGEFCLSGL
experiment: activators of CRF receptor 2 with binding protein – uHTS hits, confirmation (AID 602473)
Format: functional
assay-context: read-out: EC50_Mean
Calls of active or inactive are those of the source.
Parameter call: string, one of label 1 = active, label 0 = inactive

# count of solved cases: 5
CCOC(=O)c1cc2ccccc2n1CCN(CC)CC = label 1
CCN(c1ccccc1)S(=O)(=O)c1cc(NC(=O)CSc2nnc(O)nc2O)ccc1Cl = label 0
COc1cccc(OC)c1C(=O)N1CCN(Cc2cccnc2)CC1 = label 0
Nc1cccc2c1Cc1cc([N+](=O)[O-])ccc1-2 = label 0
O=C1c2ccccc2-c2ncnc3c(N4CCOCC4)cc(N4CCOCC4)c1c23 = label 0

Test call for this compound, please: COc1ccc(Nc2nc(Cl)nc(NCc3ccco3)n2)c(OC)c1
label 0

====

target-or-test-system: Low molecular weight phosphotyrosine protein phosphatase (Homo sapiens);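 also: Dose-response confirmation assay measuring inhibition of LMPTP enzyme activity by fluorescence intensity read-out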
Sequence (P24666 whole entry): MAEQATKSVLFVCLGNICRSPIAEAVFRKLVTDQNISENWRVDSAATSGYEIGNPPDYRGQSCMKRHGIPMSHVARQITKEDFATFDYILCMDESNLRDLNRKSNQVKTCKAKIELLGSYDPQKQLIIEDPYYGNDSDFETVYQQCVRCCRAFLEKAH
Format: functional
assay-context: read-out: IC50_Mean
Active and inactive are the calls of the source.
readout-type: IC50

Consider the worked cases shown below.
O=C(OCCNc1nc(-c2ccccc2)nc2ccccc12)c1cccnc1 = 7.51 µM (active)
NC1=NC2(CCN(Cc3ccccc3)CC2)n2c(nc3ccccc32)N1 = 27.1 µM (inactive)
c1ccc(-c2cc(NCCN3CCCCC3)c3ccccc3n2)cc1 = 3.49 µM (active)

Read the next record carefully.
// query IC50 value for entry CCOC(=O)c1cc(-c2ccc(N3CCOCC3)cc2)nn1-c1ccccc1C(=O)O
12.3 µM (active)

====

Reported IC50 values for a set of molecules
target-or-test-system: Nonstructural protein 1 (Influenza A virus)
Sequence (Q194T2 whole entry): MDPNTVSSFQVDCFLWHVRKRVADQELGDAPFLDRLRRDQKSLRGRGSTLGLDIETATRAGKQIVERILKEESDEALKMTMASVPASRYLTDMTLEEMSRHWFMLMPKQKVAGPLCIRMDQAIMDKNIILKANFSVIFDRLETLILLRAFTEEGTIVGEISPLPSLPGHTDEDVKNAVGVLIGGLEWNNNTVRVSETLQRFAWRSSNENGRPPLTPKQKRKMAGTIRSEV
Format: functional, Influenza A virus (A/California/07/2009(H1N1))
Active and inactive are the calls of the source.

Nc1[nH]c(N=NC(=O)c2ccccc2O)c2ccccc12 = 24.5 µM (active)
O=C1[C@@H]2Cc3c([nH]c4ccccc34)C(c3ccccc3)N2C(=O)CN1C1CCN(Cc2ccccc2)CC1 (stereo not given in full) = > 100 µM (active)
O=C(/C=C/c1ccc(F)cc1)NC(=S)NNC(=O)c1cnccn1 = 1.56 µM (active)
Cc1ccccc1-n1ncc2c([N+](=O)[O-])cc([N+](=O)[O-])cc21 = 31.1 µM (active)
CC1C(=O)NN=C1C(=O)N/N=C\c1ccc(O)cc1O (stereo not given) = 15.9 µM (active)

// query IC50 value for entry C/C(=N\NC(=O)c1ccc(Cl)c(Cl)c1)c1ccccn1
3.03 µM (active)

// query IC50 value for entry O=C(O)c1ccc(N=Nc2c(O)ccc3ncccc23)cc1
3.07 µM (active)

// query IC50 value for entry Oc1c(CN2CCCCC2)cc(COCc2ccccc2)c2cccnc12
1.86 µM (active)

// query IC50 value for entry O=C(N/N=C/c1cc(Cl)ccc1O)c1ccncc1
5.05 µM (active)

// query IC50 value for entry CCOC(=O)c1c(C)[nH]c(C(=O)N/N=C/c2cc([N+](=O)[O-])ccc2O)c1C
44 µM (active)

====

Reported AC50 values for a set of compounds
target-or-test-system: UniProt:P43351
Sequence (P43351 whole entry): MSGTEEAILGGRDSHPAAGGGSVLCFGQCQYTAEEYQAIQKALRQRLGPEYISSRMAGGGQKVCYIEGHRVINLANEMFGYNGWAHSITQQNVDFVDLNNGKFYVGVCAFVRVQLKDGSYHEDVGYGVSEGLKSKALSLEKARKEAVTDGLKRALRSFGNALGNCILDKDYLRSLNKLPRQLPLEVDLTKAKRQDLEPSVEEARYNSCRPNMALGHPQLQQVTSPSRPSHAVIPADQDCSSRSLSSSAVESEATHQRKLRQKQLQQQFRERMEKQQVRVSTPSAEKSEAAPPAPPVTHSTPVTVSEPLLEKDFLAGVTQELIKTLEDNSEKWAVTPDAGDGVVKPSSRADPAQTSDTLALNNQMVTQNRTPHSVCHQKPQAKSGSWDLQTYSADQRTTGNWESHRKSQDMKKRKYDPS
Assay type: functional, biochemical
Activity calls are given as the source filed them.

Consider the worked cases shown below.
COc1ccc(-c2cc(NC=O)c3ncc(-c4cccc(C(=O)NCCN(C)C)c4)n3c2)cn1 = 5.69 µM (active)
c1ccc(-c2cc(NCCN3CCCCC3)c3ccccc3n2)cc1 = < 3.63 µM (active)
COc1cc(C(=O)NC2CCN(C)CC2)ccc1Nc1ncc2c(n1)N(C1CCCCC1)CCC(=O)N2C = 5.86 µM (active)
NCCCC[C@H]1CN=C(S)N1CCc1cc(C(F)(F)F)cc(C(F)(F)F)c1 = 17.4 µM (active)
CCN1CCN(Cc2ccc(NC(=O)c3cc(NC(=O)c4cnnc5ccccc45)cc(OC)c3)cc2C(F)(F)F)CC1 = 24.3 µM (active)

Read the next record carefully.
// query AC50 value for entry CCN(CC)CCCNc1nc2ccccc2c2nc(-c3ccncc3)nn12
10.4 µM (active)

The reported numbers originate from ChEMBL document CHEMBL1201862.
